# subjectOfTest: 14-3-3 protein gamma (Homo sapiens, UniProt P61981)
# Sequence (P61981 whole entry): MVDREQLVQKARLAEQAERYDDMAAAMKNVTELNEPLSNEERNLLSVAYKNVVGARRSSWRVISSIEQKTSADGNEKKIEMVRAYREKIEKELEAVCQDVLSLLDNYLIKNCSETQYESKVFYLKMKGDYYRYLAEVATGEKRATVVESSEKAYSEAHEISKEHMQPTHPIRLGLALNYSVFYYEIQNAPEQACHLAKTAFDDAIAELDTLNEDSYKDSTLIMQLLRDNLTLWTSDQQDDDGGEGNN
# procedureText: Inhibition of recombinant GST-tagged 14-3-3gamma interaction with TMR-pS259-Raf peptide after 30 mins by fluorescence polarization assay
quantityMeasured: IC50 (nM)

compound="Oc1ccc(C2OCCc3cc(O)c(O)cc32)cc1O (racemic) [BLAPSIN B]" quantitymeasured=IC50 valuemeasured=2500
compound="O=C(Cc1ccc(O)c(O)c1)OCCc1ccc(O)c(O)c1 [BLAPSIN A]" quantitymeasured=IC50 valuemeasured=2000

---

# subjectOfTest: 14-3-3 protein gamma (Homo sapiens)
# procedureText: Inhibition of recombinant GST-tagged 14-3-3gamma interaction with PRAS40 in Cos7 cell lysate by ELISA
# Type: cell-free
quantityMeasured: IC50 (µM)

compound=O=C(Cc1ccc(O)c(O)c1)OCCc1ccc(O)c(O)c1 valuemeasured=9.2
compound="Oc1ccc(C2OCCc3cc(O)c(O)cc32)cc1O (racemic)" valuemeasured=10

Where these numbers come from: ChEMBL document CHEMBL2029347
